System: Staphylococcus aureus
assay-details: Inhibition of FabB/FabF in Staphylococcus aureus ATCC 29213 assessed as antibacterial activity after 16 hrs by agar dilution method
Assignment: determine reported MIC for the given compounds.
# number only, unit µg/mL dropped from output

Entry `C[C@]12C[C@@]34C=C(Sc5ccc(F)cc5)C(=O)[C@@](C)(CCC(=O)Nc5c(O)ccc(C(=O)O)c5O)[C@@H]3[C@H](C[C@@H]1C4)O2` under Staphylococcus aureus had MIC of 1

Entry `CCCSC1=C[C@]23C[C@H]4C[C@H](O[C@@]4(C)C2)[C@H]3[C@](C)(CCC(=O)Nc2c(O)ccc(C(=O)O)c2O)C1=O` under Staphylococcus aureus had MIC of 1

Entry `C[C@]12C[C@@]34C=C(Sc5ccc(I)cc5)C(=O)[C@@](C)(CCC(=O)Nc5c(O)ccc(C(=O)O)c5O)[C@@H]3[C@H](C[C@@H]1C4)O2` under Staphylococcus aureus had MIC of 0.5

Entry `C[C@]12C[C@]34C[C@H]1C[C@H](O2)[C@H]3[C@](C)(CCC(=O)Nc1c(O)ccc(C(=O)O)c1O)C(=O)[C@@H]1O[C@@H]14` under Staphylococcus aureus had MIC of 32

Entry `C[C@]12C[C@@]34C=C(SC5CCCCC5)C(=O)[C@@](C)(CCC(=O)Nc5c(O)ccc(C(=O)O)c5O)[C@@H]3[C@H](C[C@@H]1C4)O2` under Staphylococcus aureus had MIC of 0.5

Entry `C[C@]12C[C@@]34C=C(SCc5ccccc5)C(=O)[C@@](C)(CCC(=O)Nc5c(O)ccc(C(=O)O)c5O)[C@@H]3[C@H](C[C@@H]1C4)O2` under Staphylococcus aureus had MIC of 0.5

Entry `C[C@]12C[C@@]34C=C(Sc5cccc(I)c5)C(=O)[C@@](C)(CCC(=O)Nc5c(O)ccc(C(=O)O)c5O)[C@@H]3[C@H](C[C@@H]1C4)O2` under Staphylococcus aureus had MIC of 1

Entry `CC(=O)NC[C@H]1CN(c2ccc(N3CCOCC3)c(F)c2)C(=O)O1` under Staphylococcus aureus had MIC of 1

Entry `C[C@]12C[C@@]34C=C(Sc5cccc(C#Cc6ccccn6)c5)C(=O)[C@@](C)(CCC(=O)Nc5c(O)ccc(C(=O)O)c5O)[C@@H]3[C@H](C[C@@H]1C4)O2` under Staphylococcus aureus had MIC of 0.5

Entry `Cc1ccc(SC2=C[C@]34C[C@H]5C[C@H](O[C@@]5(C)C3)[C@H]4[C@](C)(CCC(=O)Nc3c(O)ccc(C(=O)O)c3O)C2=O)cc1` under Staphylococcus aureus had MIC of 0.5

* * *

Test system: Staphylococcus aureus
assay-details: Inhibition of FabB/FabF in methicillin-sensitive Staphylococcus aureus assessed as antibacterial activity after 16 hrs by agar dilution method
readout: MIC
Note: a bare number is incomplete; add the unit.

GET /value?item= `C[C@]12C[C@@]34C=C(Sc5ccccn5)C(=O)[C@@](C)(CCC(=O)Nc5c(O)ccc(C(=O)O)c5O)[C@@H]3[C@H](C[C@@H]1C4)O2` &field=MIC returns 2 mg/L

GET /value?item= `CCCSC1=C[C@]23C[C@H]4C[C@H](O[C@@]4(C)C2)[C@H]3[C@](C)(CCC(=O)Nc2c(O)ccc(C(=O)O)c2O)C1=O` &field=MIC returns 0.5 mg/L

GET /value?item= `C[C@]12C[C@@]34C=C(Sc5cccc(C#Cc6ccccn6)c5)C(=O)[C@@](C)(CCC(=O)Nc5c(O)ccc(C(=O)O)c5O)[C@@H]3[C@H](C[C@@H]1C4)O2` &field=MIC returns 0.5 mg/L

GET /value?item= `C[C@]12C[C@@]34C=C(SCc5ccccc5)C(=O)[C@@](C)(CCC(=O)Nc5c(O)ccc(C(=O)O)c5O)[C@@H]3[C@H](C[C@@H]1C4)O2` &field=MIC returns 0.5 mg/L

GET /value?item= `C[C@]12C[C@@]34C=C(SC5CCCCC5)C(=O)[C@@](C)(CCC(=O)Nc5c(O)ccc(C(=O)O)c5O)[C@@H]3[C@H](C[C@@H]1C4)O2` &field=MIC returns 0.25 mg/L

GET /value?item= `CC(=O)NC[C@H]1CN(c2ccc(N3CCOCC3)c(F)c2)C(=O)O1` &field=MIC returns 1 mg/L
